FYI, the data here is from patent US20230272056A1.

Record form. Attribute: kon. Fill in for each entry.
TEST SYSTEM: T1, human LAP-TGFB1 Fc fusion (human)
T1 construct: also called human LAP-TGFβ1-Fc; human LAP-TGFβ-Fc isoform 1
T1 sequence (chain, as listed by the source limits assumed): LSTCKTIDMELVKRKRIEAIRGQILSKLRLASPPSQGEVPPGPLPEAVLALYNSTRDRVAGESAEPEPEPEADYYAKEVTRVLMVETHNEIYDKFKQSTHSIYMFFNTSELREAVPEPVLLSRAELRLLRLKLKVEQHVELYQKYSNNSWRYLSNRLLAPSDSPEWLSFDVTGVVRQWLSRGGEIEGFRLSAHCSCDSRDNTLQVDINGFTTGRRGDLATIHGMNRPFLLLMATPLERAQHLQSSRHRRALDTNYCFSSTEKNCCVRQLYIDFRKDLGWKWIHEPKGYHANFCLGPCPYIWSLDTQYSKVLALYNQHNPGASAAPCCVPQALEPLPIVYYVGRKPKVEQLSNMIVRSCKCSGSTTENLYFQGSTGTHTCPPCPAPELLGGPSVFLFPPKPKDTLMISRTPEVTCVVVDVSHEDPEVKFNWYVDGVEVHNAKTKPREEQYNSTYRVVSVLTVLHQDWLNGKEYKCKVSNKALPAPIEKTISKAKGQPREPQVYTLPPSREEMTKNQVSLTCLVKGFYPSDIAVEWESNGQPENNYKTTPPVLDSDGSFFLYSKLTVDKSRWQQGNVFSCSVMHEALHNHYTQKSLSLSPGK
MEASUREMENT NOTES: SPR, antigen-Fc captured, Fab analyte
Numbers only, in M⁻¹ s⁻¹.

In the examples that follow, each entry is paired with its recorded kon.
- VH W33Y/VL T30Y (90BJM) (Fab, V domains shown, also called VH33/VL30) VH: EVQLVQSGAEVKKPGASVKVSCKASGYTFTSYYMHWVRQAPGQGLEWMGRIDPQSGGIKYAQKFQGRATLTVDTSTSTAYMELSRLRSDDTAVYYCARWDYGGYFDVWGQGTLVTVSS VL: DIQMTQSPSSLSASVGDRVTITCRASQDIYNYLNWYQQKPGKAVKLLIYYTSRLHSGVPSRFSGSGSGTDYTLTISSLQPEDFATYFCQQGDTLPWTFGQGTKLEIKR: 1.89e+06
- 20E6 Fab (80BGJ/85BIT) (Fab, V domains shown, also called 20E6 (80BGJ); 20E6 (85BIT)) VH: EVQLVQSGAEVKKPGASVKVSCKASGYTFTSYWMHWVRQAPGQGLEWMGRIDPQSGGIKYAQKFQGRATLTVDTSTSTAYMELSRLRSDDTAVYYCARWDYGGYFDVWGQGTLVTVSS VL: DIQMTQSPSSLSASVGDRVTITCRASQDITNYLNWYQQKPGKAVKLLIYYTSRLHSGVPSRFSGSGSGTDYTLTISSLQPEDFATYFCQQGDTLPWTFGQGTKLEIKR: 1.45e+06
- VH W33Y/VL R53Y (91BJM) (Fab, V domains shown, also called VH33/VL53) VH: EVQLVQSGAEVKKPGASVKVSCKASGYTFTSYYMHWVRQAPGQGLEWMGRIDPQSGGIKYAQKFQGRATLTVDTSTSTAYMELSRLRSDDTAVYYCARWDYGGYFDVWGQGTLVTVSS VL: DIQMTQSPSSLSASVGDRVTITCRASQDITNYLNWYQQKPGKAVKLLIYYTSYLHSGVPSRFSGSGSGTDYTLTISSLQPEDFATYFCQQGDTLPWTFGQGTKLEIKR: 910000

Now examine the next entry.
Entry VH W33Y/VL T93Y (92BJM) (Fab, V domains shown, also called VH33/VL93) VH: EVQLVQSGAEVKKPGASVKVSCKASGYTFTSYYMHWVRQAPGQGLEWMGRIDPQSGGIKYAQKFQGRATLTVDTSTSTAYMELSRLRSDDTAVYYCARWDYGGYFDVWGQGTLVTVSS VL: DIQMTQSPSSLSASVGDRVTITCRASQDITNYLNWYQQKPGKAVKLLIYYTSRLHSGVPSRFSGSGSGTDYTLTISSLQPEDFATYFCQQGDYLPWTFGQGTKLEIKR : reported kon = ?
650000
